Listing: solubility kinetic of selected compounds
# Assay Context: buffer; pH 7.4; 200.0 µM

Please review the following examples before continuing.
{"Compound": "COc1ccc2[nH]cc(C(O)CN3CCN(c4ccccc4F)CC3)c2c1 (configuration not stated)", "Measurement": "> 55.4 µg/mL"}
{"Compound": "O=c1c(Cc2ccc(F)cc2)c(O)ccn1CCCn1ccnc1", "Measurement": "> 49.1 µg/mL"}
{"Compound": "Cc1ccc(CC2SC(N=C(N)N)=NC2=O)cc1 (configuration not stated)", "Measurement": "> 39.3 µg/mL"}
{"Compound": "COC(=O)c1ccccc1NC(=O)CSc1nncn1C", "Measurement": "> 46 µg/mL"}
{"Compound": "Cc1cccc(C)c1N1CCN(C(=O)Cn2cncn2)CC1", "Measurement": "> 44.9 µg/mL"}

Need solubility kinetic of CC(=O)NCCc1nc2ccccc2n1CCOc1ccc(C)cc1 , thanks.
> 50.6 µg/mL

And what about the compound CC(C)NCC(O)c1ccc(NS(C)(=O)=O)cc1.Cl (configuration not stated) ?
> 46.3 µg/mL

====

Let's look at some compounds and their measured solubility kinetic.
# Assay Context: buffer; pH 7.4; 200.0 µM

{"Compound": "O=S(=O)(Nc1ccc(Cl)cc1)c1ccc2c(c1)CCO2", "Measurement": "> 46.5 µg/mL"}
{"Compound": "CN1CC(=O)N(CC(=O)Nc2ccc(OCc3ccccc3)cc2)C1=O", "Measurement": "45.7 µg/mL"}
{"Compound": "Cc1noc(C)c1C(=O)Nc1cc(Cl)ccc1N1CCOCC1", "Measurement": "13.5 µg/mL"}
{"Compound": "O=C(OCC(=O)N1CCC(Cc2ccccc2)CC1)c1cc(Br)ccc1O", "Measurement": "6 µg/mL"}
{"Compound": "C1CCCCCC(NCCN2CCNCC2)CCCCC1", "Measurement": "> 44.3 µg/mL"}

Requested field: solubility kinetic. Item: CC1CCC(NC(=O)CN2C(=O)c3ccccc3S2(=O)=O)CC1 (stereo unspecified)
> 50.5 µg/mL

====

# Assay Context: buffer; pH 7.4; 200.0 µM
Each record here notes measured solubility kinetic.
Value expressed in µg/mL; do not type the unit.

{"Compound Smiles": "C/C(=N\\O)c1cccc(Br)c1", "Measurement Kind": "solubility kinetic", "Measurement": 18.1}

Recorded solubility kinetic for CCCC(=O)Nc1ccc(NC(=O)c2cccc(OC)c2)cn1 , please?
8.7

Follow-up entry: CC1(C)Cc2nc(-c3ccccc3)nc(SCC(=O)N3CCCC3)c2CO1
22.3

Same question, COCCn1cc(-c2csc(N)n2)c2ccccc21 this time
35.1

Please do the same for CC(C)c1ccc(CNCCCSc2ncccn2)cc1.Cl as well.
49.1

====

# Assay Context: buffer; pH 7.4; 200.0 µM
Measurement Kind: solubility kinetic

Returns the measured solubility kinetic for the input molecule. Input: Cc1ccc(CNC(=O)COC(=O)CN2C(=O)C3CC=CCC3C2=O)cc1 (stereo not drawn)
> 55.6 µg/mL

Another molecule to check: O=C(NCc1ccccc1F)c1ccc2c(c1)OCCO2
> 43.1 µg/mL

Consider next the molecule CN1CCC(N(C)C(=O)c2cc(S(=O)(=O)N3CCOCC3)ccc2Cl)CC1.Cl in the same way.
> 67.9 µg/mL

====

In this section we review reported solubility kinetic values for a set of molecules.
# Assay Context: buffer; pH 7.4; 200.0 µM

{"Molecule": "O=c1[nH]c2ccc(Cl)cc2c(-c2ccccc2)c1[N+](=O)[O-]", "Measurement Kind": "solubility kinetic", "Measurement": "< 0.3 µg/mL"}
{"Molecule": "CC(CNS(=O)(=O)c1ccccc1)Sc1ncccn1 (stereo unspecified)", "Measurement Kind": "solubility kinetic", "Measurement": "> 46.4 µg/mL"}
{"Molecule": "CN(CC(O)Cn1c2ccccc2c2ccccc21)S(C)(=O)=O (stereo unspecified)", "Measurement Kind": "solubility kinetic", "Measurement": "> 49.9 µg/mL"}

# input molecule: O=c1[nH]c(=O)n([C@H]2C[C@H](O)[C@@H](CO)O2)cc1C(F)(F)F ; wanted: its solubility kinetic
> 44.4 µg/mL

// same read-out, input: CCCCn1c(SCC(=O)N2CCOCC2)nc2ccccc2c1=O
> 54.2 µg/mL

Same lookup for C=CCn1cnnc1SCC(=O)Nc1cccnc1Cl , please.
> 46.5 µg/mL
